Tested on: RAR-β
Method Summary: RAR-β transactivation assay (SeAP reporter, COS cells)
Assay type: cell-based, human
Particulars: relative to all-trans-retinoic acid at same concentration (1,000 nM or 10,000 nM)
Transactivation % max (β) vs 60%: at or above is 1, below is 0.

CC1=C(/C=C/C(C)=C/C=C/C(C)=C\C(=O)O)C(C)(C)CCC1 [B, 13-cis retinoic acid, reference compound]
1
CCCCCOc1cc2c(cc1/C=C/C=C/C(C)=C/C(=O)O)C(C)(C)CCC2(C)C [Q]
1
CCCCCCc1cc2c(cc1/C=C/c1ccc(C(=O)O)cc1)C(C)(C)CCC2(C)C [M]
1
CCOC(=O)/C=C(C)/C=C/C=C(C)/C=C/c1c(C)cc(OC)c(C)c1C [E, etretinate, reference compound]
0
CCS(=O)(=O)c1ccc(/C=C(\C)c2ccc3c(c2)C(C)(C)CCC3(C)C)cc1 [I]
0
CC1=C(/C=C/C(C)=C/C=C/C(C)=C/C(=O)O)C(C)(C)CCC1 [Compound A, all-trans retinoic acid, reference compound]
1
C/C(=C\c1ccccc1)c1ccc2c(c1)C(C)(C)CCC2(C)C [H]
0
CCCCCCCOc1cc2c(cc1/C(C)=C/c1ccc(C(=O)O)cc1)C(C)(C)CCS2(=O)=O [Compound L, reference compound]
0
CCCCc1cc2c(cc1/C=C/c1ccc(C(=O)O)cc1)C(C)(C)CCC2(C)C [O]
1

Kindly consider the entry below.
Req: hey, is Transactivation % max (β) for this one >= 60%? C/C(=C\c1ccc(S(C)(=O)=O)cc1)c1ccc2c(c1)C(C)(C)CCC2(C)C [G]
Resp: 0
